tested on: Spodoptera frugiperda; experiment: Spodoptera frugiperda spray test; assay type: in vivo; conditions: 100 g/ha; after 7 days
reported metric: efficacy (%)
Could you give me the number in %? Just the number is fine.

Record request: efficacy value, item CSc1cc(C(F)(C(F)(F)F)C(F)(F)F)cc(Cl)c1-n1cc(-c2ccc(F)c(CNC(=O)C3CC3)c2)cn1
83

What do you get for CCC(=O)NCc1cccc(-c2cnn(-c3c(C)cc(C(F)(C(F)(F)F)C(F)(F)F)cc3Cl)c2)c1 ?
100

Record: CC(=O)N(C)Cc1cc(-c2cnn(-c3c(Cl)cc(C(F)(C(F)(F)F)C(F)(F)F)cc3OC(F)(F)F)c2)cnc1Cl
100

Request: CC(=O)NCc1cc(-c2cnn(-c3c(C)cc(C(F)(C(F)(F)F)C(F)(F)F)cc3C)c2)ccc1Cl
100

***
// query efficacy value for entry O=C(NCc1cc(-c2cnn(-c3c(Cl)cc(C(F)(C(F)(F)F)C(F)(F)F)cc3OC(F)(F)F)c2)ccc1Cl)C1CC1
100

// same read-out, input: CCC(=O)NCc1cc(-c2cnn(-c3c(Cl)cc(C(F)(C(F)(F)F)C(F)(F)F)cc3C#N)c2)ccc1F
100

Also need CC(=O)NCc1cc(-c2cnn(-c3c(C)cc(C(F)(C(F)(F)F)C(F)(F)F)cc3Cl)c2)ccc1F , thanks.
100

Another: O=C(NCc1cc(-c2cnn(-c3c(Cl)cc(C(F)(C(F)(F)F)C(F)(F)F)cc3C(F)F)c2)ccc1F)C1CC1
100

Same lookup for CC(=O)NCc1cc(-c2cnn(-c3c(Cl)cc(C(F)(C(F)(F)F)C(F)(F)F)cc3OC(F)(F)F)c2)ccc1F , please.
100

Now consider CC(=O)NCc1c(F)ccc(-c2cnn(-c3c(Cl)cc(C(F)(C(F)(F)F)C(F)(F)F)cc3OC(F)F)c2)c1F .
100

Continue with CCOCN(Cc1cc(-c2cnn(-c3c(Cl)cc(C(F)(C(F)(F)F)C(F)(F)F)cc3Cl)c2)ccc1Cl)C(C)=O
100

Next molecule: CCC(=O)NC1CCc2ccc(-c3cnn(-c4c(Cl)cc(C(F)(C(F)(F)F)C(F)(F)F)cc4OC(F)F)c3)cc21 (stereo not shown)
100

Now give it for CC(=O)N(C)Cc1cc(-c2cnn(-c3c(Cl)cc(C(F)(C(F)(F)F)C(F)(F)F)cc3OC(F)(F)F)c2)ccc1F too.
100

Would you mind doing CCC(=O)NCc1cc(-c2cnn(-c3c(Cl)cc(C(F)(C(F)(F)F)C(F)(F)F)cc3OC(F)(F)F)c2)ccc1Cl as well?
100

Same lookup for CCC(=O)NCc1cc(-c2cnn(-c3c(Cl)cc(C(F)(C(F)(F)F)C(F)(F)F)cc3Cl)c2)ccc1F , please.
100

Input CCC(=O)NCc1c(F)ccc(-c2cnn(-c3c(Cl)cc(C(F)(C(F)(F)F)C(F)(F)F)cc3C(F)(F)F)c2)c1F
100

Source listed as patent US10357036B2.
